Provenance of the data: ChEMBL document CHEMBL4342421

# Lookup of reported MIC keyed by entry
- Test system: Candida albicans
- assay_remarks: Antifungal activity against Candida albicans
- Assay type: functional
recorded_metric: MIC

- Cc1ccc2c(c1)cc(/C=C/C(=O)c1cccs1)c1nnnn12: 6.25 to 100 µg/mL
- COc1ccc(C2=NN(C(N)=S)C(c3cc4cc(C)ccc4n4nnnc34)C2)cc1 (stereo not given): 3.12 to 25 µg/mL
- Cc1ccc2c(c1)cc(C1CC(c3ccccc3)=NN1C(N)=S)c1nnnn12 (stereo not given): 3.12 to 100 µg/mL
- Fc1cc2[nH]c(SCc3ccc(-c4ccccc4-c4nnnn4C(c4ccccc4)(c4ccccc4)c4ccccc4)cc3)nc2cc1-n1cncn1: 16 to 64 µg/mL
- Cn1c(-c2ccc(NC(=O)CSc3nnnn3-c3ccccc3)cc2)nc2cc(Cl)c(Cl)cc21: 12.5 to 400 µg/mL
- CC1(C)S[C@@H]2[C@H](NC(=O)[C@H](N)c3ccccc3)C(=O)N2[C@H]1C(=O)O: 2 to 250 µg/mL
- Cc1ccc2cc(/C=C/C(=O)c3cccs3)c3nnnn3c2c1: 6.25 to 100 µg/mL
- Cc1ccc2c(c1)cc(/C=C/C(=O)c1ccccc1)c1nnnn12: 6.25 to 100 µg/mL
- Cc1ccc2cc(C3CC(c4ccccc4)=NN3C(N)=S)c3nnnn3c2c1 (stereo not given): 3.12 to 100 µg/mL
- COc1ccc(C2=NN(C(N)=S)C(c3cc4ccc(C)cc4n4nnnc34)C2)cc1 (stereo not given): 3.12 to 25 µg/mL
- Cc1ccc2c(c1)cc(/C=C/C(=O)c1ccc(Cl)cc1)c1nnnn12: 6.25 to 100 µg/mL
- c1ccc(-c2nnnn2-c2nc3ccccc3s2)cc1: 50 to 100 µg/mL
- Clc1ccc(-c2nnnn2-c2nc3ccccc3s2)cc1: 50 to 100 µg/mL
- OC(Cn1cncn1)(Cn1cncn1)c1ccc(F)cc1F: 25 µg/mL
- Cc1ccc2c(c1)cc(/C=C/C(=O)c1ccccn1)c1nnnn12: 6.25 to 100 µg/mL
- Cn1nnnc1SCC(=O)Nc1ccc(-c2nc3cc(Cl)c(Cl)cc3n2C)cc1: 12.5 to 400 µg/mL
- Cc1ccc(-c2nnnn2-c2nc3ccccc3s2)cc1: 50 to 100 µg/mL
- Cc1cc2c(=O)c(OCc3nnn[nH]3)c(-c3ccc(F)cc3)oc2cc1Cl: 12.5 to 25 µg/mL
- Fc1cc2nc(SCc3ccc(-c4ccccc4-c4nnnn4C(c4ccccc4)(c4ccccc4)c4ccccc4)cc3)[nH]c2cc1-n1ccnc1: 16 to 64 µg/mL
- Cc1ccc2cc(/C=C/C(=O)c3ccccc3)c3nnnn3c2c1: 6.25 to 100 µg/mL

###

- Tested on: Escherichia coli
- assay_remarks: Antimicrobial activity against Escherichia coli
- Format: functional
recorded_metric: MIC

- COc1cc(/C=C2\SC(=O)N(Cc3ccc(-c4ccccc4-c4nnn[nH]4)cc3)C2=O)cc(OC)c1OC: 7.75 to 35.4 µg/mL
- Cn1c(-c2ccc(NC(=O)CSc3nnnn3-c3ccccc3)cc2)nc2cc(Cl)c(Cl)cc21: 12.5 to 400 µg/mL
- Cc1ccc2cc(/C=C/C(=O)c3cccs3)c3nnnn3c2c1: 6.25 to 100 µg/mL
- COc1cc(/C=C2\SC(=O)N(Cc3ccc(-c4ccccc4-c4nnn[nH]4)cc3)C2=O)cc(OC)c1: 7.75 to 35.4 µg/mL
- N=C(N)Nc1nnn(Cc2cccc(Cn3nnc(C(=N)N)n3)c2)n1: 30 to 40 µg/mL
- Fc1cc2nc(SCc3ccc(-c4ccccc4-c4nnnn4C(c4ccccc4)(c4ccccc4)c4ccccc4)cc3)[nH]c2cc1-n1ccnc1: 16 to 64 µg/mL
- O=C(O)c1cn(C2CC2)c2cc(N3CCN(C(=O)CCSc4nnnn4-c4ccc(C(F)(F)F)cc4)CC3)c(F)cc2c1=O: 15.6 µg/mL
- O=c1c(OCc2nnn[nH]2)c(-c2ccc(F)cc2)oc2ccccc12: 100 µg/mL
- Fc1ccc2c(c1)sc1nc(-c3cc4ccccc4n4nnnc34)c(NCCc3ccccc3)n12: > 320 µg/mL
